- Tested on: MRSA COL and MRSA Strain No. 5
- Protocol Details: Potentiating effect of various gallates for antibacterial activity of oxacillin (MIC by broth microdilution method and FIC)
- Format: cell-based, Staphylococcus aureus
- Study Conditions: MRSA Strain No. 5; combination with oxacillin
Would you kindly list FIC value for each of these compounds?
Please give the numeric answer without any surrounding text.

Could you share which FIC value value was measured for O=C(O[C@@H]1Cc2c(O)cc(O)cc2O[C@@H]1c1ccc(O)c(O)c1)c1cc(O)c(O)c(O)c1 [Epicatechin gallate, epicatechin gallate] ?
0.188

Any idea what its FIC value is? The compound is CCOC(=O)c1cc(O)c(O)c(O)c1 [Ethyl gallate, ethyl gallate]
0.156

If you can, please state the reported FIC value value of CC(C)COC(=O)c1cc(O)c(O)c(O)c1 [isoButyl gallate, isobutyl gallate] .
0.266

Give its FIC value value. Item: O=C(O[C@@H]1Cc2c(O)cc(O)cc2O[C@H]1c1cc(O)c(O)c(O)c1)c1cc(O)c(O)c(O)c1 [Gallocatechin gallate, gallocatechin gallate]
0.188

// query FIC value value for entry CCCCCCCCCOC(=O)c1cc(O)c(O)c(O)c1 [Nonyl gallate, n-nonyl gallate]
0.502

Quick check: FIC value of CC(C)CCOC(=O)c1cc(O)c(O)c(O)c1 [isoAmyl gallate, Isoamyl gallate] ?
0.313

// lookup FIC value for CCCCCCCOC(=O)c1cc(O)c(O)c(O)c1 [Heptyl gallate, n-heptyl gallate]
0.75

Ref: patent US20060235076A1
